Values from PubChem BioAssay (NCI)

# Test system: OVCAR-5 ovarian
# test protocol: NCI-60 one-dose screen, 48 h
# experimental conditions: 10 µM unless noted
Compounds without any hit were thinned out: in the full panel of roughly 83,000, 20% have a hit. The source made the active and inactive calls. The calls were made as follows: active = growth percent below 10; inactive = the rest.
Classes to choose from: active, inactive

| compound | classification |
| --- | --- |
| COc1ccc(C2=NN(C(C)=O)C(c3cccc(Nc4ccnc5cc(Cl)ccc45)c3)C2)cc1 (stereo not given) | inactive |
| C=C1CCC2C(C)(COC(=O)CC)C(OC(=O)CC)CCC2(C)C1C/C=C1/C(=O)OCC1OC(=O)CC (stereo not given) | active |
| Nc1ccn(C2O[C@H](CO)[C@@H](O)[C@@H]2O)c(=O)n1 (stereo not given in full) | inactive |
| CCCCN=C(N)c1ccc(OCCSCCOc2ccc(C(N)=NCCCC)cc2)cc1 | inactive |
| COc1ccc(CNC(=O)c2c(C)n([O-])c3ccccc3[n+]2=O)cc1 | inactive |

// return assay outcome for COC(=O)c1cc2oc(/C=N\NC(=O)c3cc4oc(C)c(C)c4[nH]3)cc2[nH]1
inactive

Subsequent entry: COc1cccc(C2=NN(C(C)=O)C(c3cc(OC)c(OC)c(OC)c3)C2)c1 (stereo not given)
inactive

Another: O=C1C=CC(=O)N1c1ccccc1N1C(=O)C=CC1=O
inactive

Would you kindly repeat that for CC(=O)O[C@H]1CC[C@@]2(C)C(=CC[C@@H]3[C@@H]2CC[C@]2(C)C(c4cccnc4)=CC[C@@H]32)C1 ?
inactive

And then COc1ccc2c(=O)c(OC)c(-c3cc(OC)c(OC)c(OC)c3)oc2c1 , what is it?
inactive

====

# Test system: LOX IMVI melanoma
# test protocol: NCI-60 one-dose screen, 48 h
# experimental conditions: 10 µM unless noted
The panel holds about 83,000 compounds, 20% with a hit somewhere; the sample as a whole holds those more often. Active and inactive are the calls of the source. Rule for the calls: active = growth percent below 10; inactive = the rest.
Please answer using one outcome listed in active, inactive

Just curious, what result did CC(=O)c1ccc(NS(=O)(=O)c2ccc([N+](=O)[O-])cc2)cc1 get here?
inactive

Now the molecule CCCCCCCCCCCCCCCCNC(=O)Nc1ccc2ccccc2c1
inactive

Quick one: O=C1OC2(c3ccccc31)c1ccccc1-c1ccccc12
inactive

Now the molecule Cc1[nH]ccc2cc3nc4ccccc4c3cc12
inactive

One more molecule: N#Cc1c(-c2ccccc2)cc(-c2ccccc2)n(CCCCC(=O)O)c1=O
inactive

Now try Nc1ccccc1C#Cc1ccccc1C#Cc1ccc(OCCCCCCOc2ccc(C#Cc3ccccc3C#Cc3ccccc3N)cc2)cc1 .
inactive

Entry to check: O=C1NCCc2c1noc2-c1ccccc1
inactive

Another: COc1ccc(C(=O)COc2ccc(/C=C3\Oc4ccc5ccccc5c4C3=O)cc2)cc1
inactive

Then O=C(C(=O)N1CCOCC1)c1cn(CCCn2cc(C(=O)C(=O)N3CCOCC3)c3ccccc32)c2ccccc12 ?
inactive

Lookup O=C(Oc1cccc2ccccc12)c1ccccc1C(=O)c1ccccc1
inactive

Another molecule: COC(=O)C1CCN(S(=O)(=O)c2ccc(-c3ccccc3)cc2)CC1
inactive

Try the molecule [N-]=[N+]=NCc1cccc(/C(O)=C/C(=O)C(=O)O)c1
inactive

Consider next the molecule COc1cccc2c1C(=O)c1c(O)c3c(c(O)c1C2=O)C[C@@](O)(C(C)=O)C[C@@H]3O[C@H]1C[C@H](N)[C@H](O)[C@H](C)O1 in the same way.
active

Please answer likewise for O=C(Nc1nc2c(C(F)(F)F)cccc2s1)c1cc(Cl)ccc1O
active

Continue with c1ccc2nc(N/N=C3\CCCCC3C3CCCCC3)ccc2c1 (centres undefined)
inactive

Now consider Cc1ccc2c(c1)C(=O)/C(=C\Nc1ccc(C(N)=O)cc1)C(O)O2 (centres undefined) .
inactive

// same read-out, input: C[C@@H]1[C@H]2[C@H](C=C3[C@@H]4CC[C@H]5Cc6nc7c(nc6C[C@]5(C)[C@H]4C[C@@H](O)[C@@]32C)C[C@@H]2CC[C@H]3C4=C[C@@H]5O[C@@]6(CC[C@](C)(CO)O6)[C@@H](C)[C@@]5(O)[C@@]4(C)[C@H](O)C[C@@H]3[C@@]2(C)C7)O[C@]12CCC(C)(C)O2
active

Now consider COC(=O)[C@H]1[C@H]2C[C@@H]3c4[nH]c5cc(OC)ccc5c4CCN3C[C@H]2C[C@@H](OC(=O)/C=C/c2cc(OC)c(OC)c(OC)c2)[C@@H]1OC and answer again.
inactive

Would you mind doing C=C1CCC2C3(C)COC(c4ccccc4)OC3CCC2(C)C1C/C=C1/C(=O)OCC1OC(C)=O (centres undefined) as well?
inactive

Do the same for CCOC(=O)Nc1cc(-c2ccc(C)c(NS(C)(=O)=O)c2)nn2c(C)nnc12 please
active

Next up: Cc1ccc(S(=O)(=O)NCCN2c3nc4ccccc4cc3Sc3cc4ccccc4nc32)cc1
inactive

Next: Nc1ccccc1-c1ccn[nH]1
inactive

What do you have for COc1cc(/C=C2\CN(C)CC3=C2Nc2nc(SC)[nH]c(=O)c2C3c2cc(OC)c(OC)c(OC)c2)cc(OC)c1OC (centres undefined) ?
active

And what about the molecule Fc1ccc(-c2nn3c(-c4cc(C(F)(F)F)cc(C(F)(F)F)c4)nnc3s2)cc1 ?
inactive

Lookup O=[N+]([O-])c1ccc(NS(=O)(=O)c2ccc(Cl)c(Cl)c2)cc1
inactive

Entry O=C(Nc1nn2c(-c3cc(C(F)(F)F)cc(C(F)(F)F)c3)nnc2s1)C1CCCC1 please
inactive

Also, N#CC1c2ccccc2C=CN1C(=O)N(c1ccccc1)c1ccccc1 (centres undefined) please.
inactive

Try the molecule CSc1nc2nc3c(c(-c4ccc(C)cc4)c2c(=O)[nH]1)CN(C)C/C3=C\c1ccc(C)cc1
inactive

====

# Test system: SNB-19 CNS
# test protocol: NCI-60 one-dose screen, 48 h (100 = growth as untreated, 0 = no growth, -100 = all killed)
# experimental conditions: 10 µM unless noted
This is part of a sample that, as a whole, favours compounds with a hit. Of some 83,000 tested, about 20% had one in any assay.
Can you tell me growth for the items I'm about to list?
Give bare numbers, in %.

Below, each entry is followed by its recorded growth result.
| compound | growth [%] |
| --- | --- |
| COC(=O)N/N=C/c1coc2ccc(Cl)cc2c1=O | 98.4 |
| COc1cccc(N2CCN(CC(=O)N3CCN(c4nnc(-c5ccc(Cl)cc5)c(-c5ccc(Cl)cc5)n4)CC3)CC2)c1 | 77.1 |
| COc1ccc2[nH]c(=O)c(CNc3ccc(Nc4nccc(-c5ccc(Cl)cc5)n4)cc3)cc2c1 | 95.4 |

Provide reported growth for each item, in the same order as listed.
1. O=C(NC1CCS(=O)(=O)C1)c1ccc(C(=O)c2ccccc2)cc1 (centres undefined)
2. COc1ccc(-c2cc(-c3cccnc3)nc(S(=O)(=O)CC(=O)Nc3ccc(C)cc3)c2C#N)cc1OC

97.9
94.6

I need growth for every entry listed below, if you could help.
1. CN(C)CCCN=c1cc2c(=O)n(CCCN(C)C)c(=O)c3c(NCCCN(C)C)cc4c(O)n(CCCN(C)C)c(=O)c1c4c3-2
2. COc1cc(/C=C2\CN(S(=O)(=O)c3ccc(C)cc3)C/C(=C\c3cc(CN4CCOCC4)c(O)c(OC)c3)C2=O)cc(CN2CCOCC2)c1O
3. CC(=O)Nc1cc2c3c(cccc3c1)-c1ccccc1-2

[10.7, 12.9, 91.2]

For the compound shown here, c1ccc2nc(N/N=C3\CCCCC3C3CCCCC3)ccc2c1 (centres undefined) , give the reported growth.
76

====

# Tested on: COLO 205 colon
# test protocol: NCI-60 one-dose screen, 48 h (100 = growth as untreated, 0 = no growth, -100 = all killed)
# experimental conditions: 10 µM unless noted
Compounds without any hit were thinned out: in the full panel of roughly 83,000, 20% have a hit. The source made the active and inactive calls. How the source made its calls: active means growth percent below 10; inactive means the rest.
measured quantity: growth

| molecule | target entity | observed measurement |
| --- | --- | --- |
| COc1ccc(OC)c(CCn2cncc2-c2c[nH]c3cc(Br)ccc23)c1 | COLO 205 colon | 7.59% (active) |

Give growth for all molecules that follow.
1. O=C1N=C(N2CCOCC2)S/C1=C\c1cn(-c2ccccc2)nc1-c1ccccc1
2. Clc1ccc2[nH]cc(-c3cncn3CCc3ccccc3)c2c1
3. O=C(NCCCl)NCCN1c2nc3ccccc3cc2Sc2cc3ccccc3nc21

["122% (inactive)", "44.3% (inactive)", "73.8% (inactive)"]

List the reported growth of each molecule below.
1. O=C(/C=C(\Nc1ccccc1)c1ccccc1)c1cn(-c2ccc([N+](=O)[O-])cc2)nn1
2. O=C(O)CCC(=O)OC[C@@H](NC(=O)C(Cl)Cl)[C@H](O)c1ccc([N+](=O)[O-])cc1
3. O=C(Nc1nc(-c2ccc(Cl)cc2)cs1)c1cc(-c2ccc(Br)cc2)nc2ccc(Cl)cc12
4. CC(C)CNc1nc(N=[N+]=[N-])nc(NCC(C)C)n1
5. CCN1CC2=C(Nc3nc(SC)[nH]c(=O)c3C2c2cc(OC)c(OC)c(OC)c2)/C(=C/c2cc(OC)c(OC)c(OC)c2)C1 (stereo not given)
6. O=[N+]([O-])c1ccc(N=Nc2c(Cl)cc(O)cc2Cl)cc1

["97.2% (inactive)", "99.4% (inactive)", "89.1% (inactive)", "99.2% [100 µM] (inactive)", "113% (inactive)", "35.2% (inactive)"]
